tested on: SKOV3; experiment: Cell viability assay (CellTiter-Glo) SKOV3; type: cell-based; settings: Homo sapiens, SK-OV-3; cell viability after 96 hours; read-out: IC50 (µM, mean ± SD) SKOV3
measurement.label: IC50 (µM)
Entry rule: numbers only, all in µM.

input: What value of IC50 has been recorded for this entry: O=C(CCCc1ccccc1)Nc1cc(-c2ccc(O)c(F)c2)ccc1O [Compound 15]
output: 16

* * *

target: recombinant human MAGL enzyme (Homo sapiens, UniProt Q99685); test: In vitro screening of activity on the recombinant human MAGL enzyme (4-NPA substrate, absorbance 405 nm); conditions: substrate 4-NPA, room temperature, 30 minutes
Sequence (Q99685 whole entry): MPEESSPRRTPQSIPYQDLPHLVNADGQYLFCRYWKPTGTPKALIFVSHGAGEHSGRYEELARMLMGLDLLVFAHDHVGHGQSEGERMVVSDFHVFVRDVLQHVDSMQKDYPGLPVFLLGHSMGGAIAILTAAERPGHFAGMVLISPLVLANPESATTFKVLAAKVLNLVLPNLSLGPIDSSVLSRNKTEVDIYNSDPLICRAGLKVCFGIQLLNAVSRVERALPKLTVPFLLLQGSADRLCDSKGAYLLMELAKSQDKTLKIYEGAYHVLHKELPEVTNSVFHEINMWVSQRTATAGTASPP
measurement.label: pIC50
Expect pIC50 as a plain number equal to -log10 of the molar concentration.

input: What value of pIC50 has been recorded for this entry: CCCCCCCCC(=O)Nc1cc(-c2ccc(O)c(F)c2)ccc1O
output: 5.54

input: What value of pIC50 has been recorded for this entry: CCCCCC(=O)Nc1cc(-c2ccc(O)c(F)c2)ccc1O
output: 5.49

input: What value of pIC50 has been recorded for this entry: CCCCCCCC(=O)Nc1cc(-c2ccc(O)c(F)c2)ccc1O
output: 6.21

input: What value of pIC50 has been recorded for this entry: O=C(Cc1cccc2ccccc12)Nc1cc(-c2ccc(O)c(F)c2)ccc1O
output: 5.72

input: What value of pIC50 has been recorded for this entry: CCCCCCC(=O)Nc1cc(-c2ccc(O)c(F)c2)ccc1O
output: 5.96

input: What value of pIC50 has been recorded for this entry: O=C(Cc1ccccc1)Nc1cc(-c2ccc(O)c(F)c2)ccc1O
output: 5.29

input: What value of pIC50 has been recorded for this entry: O=C(CCCCc1ccccc1)Nc1cc(-c2ccc(O)c(F)c2)ccc1O
output: 5.96

input: What value of pIC50 has been recorded for this entry: O=C(CCc1ccccc1)Nc1cc(-c2ccc(O)c(F)c2)ccc1O
output: 5.70

input: What value of pIC50 has been recorded for this entry: CCCCCCCCCCCC(=O)Nc1cc(-c2ccc(O)c(F)c2)ccc1O
output: 5.55

input: What value of pIC50 has been recorded for this entry: O=C(CCCc1ccccc1)Nc1cc(-c2ccc(O)c(F)c2)ccc1O
output: 6.47

input: What value of pIC50 has been recorded for this entry: CCCCCCCCCCCCCC(=O)Nc1cc(-c2ccc(O)c(F)c2)ccc1O
output: 5.60

input: What value of pIC50 has been recorded for this entry: CCCCC(=O)Nc1cc(-c2ccc(O)c(F)c2)ccc1O
output: 5.12

input: What value of pIC50 has been recorded for this entry: O=C(Nc1cc(-c2ccc(O)c(F)c2)ccc1O)c1ccccc1
output: 5.16

input: What value of pIC50 has been recorded for this entry: CCCCCCCCCC(=O)Nc1cc(-c2ccc(O)c(F)c2)ccc1O
output: 5.96

input: What value of pIC50 has been recorded for this entry: CC(C)C(=O)Nc1cc(-c2ccc(O)c(F)c2)ccc1O
output: 4.71

* * *

biological target: recombinant human MAGL enzyme (Homo sapiens, UniProt Q99685); assay: Enzymatic kinetics experiments with scalar concentrations of 4-NPA (Michaelis-Menten, mixed-model inhibition fit); conditions: compound 1-0.125 µM, 4-NPA 15-1400 µM
measurement.label: Ki (nM)
Entry rule: numbers only, all in nM.

input: What value of Ki has been recorded for this entry: O=C(CCCc1ccccc1)Nc1cc(-c2ccc(O)c(F)c2)ccc1O
output: 146
